# STUDY_TARGET: rat MCH-1R (Rattus norvegicus, UniProt P97639)
# Sequence (P97639 whole entry): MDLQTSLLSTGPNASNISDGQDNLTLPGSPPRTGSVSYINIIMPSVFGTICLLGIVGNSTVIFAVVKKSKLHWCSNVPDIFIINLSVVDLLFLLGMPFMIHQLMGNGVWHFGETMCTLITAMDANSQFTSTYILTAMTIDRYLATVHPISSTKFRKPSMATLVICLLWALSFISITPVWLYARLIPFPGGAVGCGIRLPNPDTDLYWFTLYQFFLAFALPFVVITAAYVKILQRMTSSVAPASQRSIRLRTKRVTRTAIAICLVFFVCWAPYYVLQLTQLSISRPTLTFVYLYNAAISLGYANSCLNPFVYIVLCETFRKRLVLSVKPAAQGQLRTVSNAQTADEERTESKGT
# ASSAY_PROTOCOL: Aequorin bioluminescence functional assay, MCH-1R agonist activity
Where a SMILES comes first, the peptide text is derived from it. Bridges are numbered along the chain shown (N, C = ends). [ ]: non-standard residue; d: D form. The star is where a group is joined. Pentanoyl(5-guanidino) = NC(N)=NCCCCC(=O)*; Nle = CCCC[C@H](N)C(=O)O; Ava = NCCCCC(=O)O
TEST_READOUT: EC50

// field: EC50; key: CCCC[C@@H]1NC(=O)[C@@H](NC(=O)CCCCNC(=N)N)CSSC[C@@H](C(=O)O)NC(=O)CCCCNC(=O)CCCCNC(=O)[C@H](Cc2ccc(O)cc2)NC(=O)[C@H](C)NC(=O)[C@H](CCCNC(=N)N)NC(=O)CCCCNC(=O)CCCCNC1=O [SEQ. ID. NO. 35] ({Pentanoyl(5-guanidino)}-C[Nle][Ava][Ava]RAY[Ava][Ava]C-OH; disulfide 1-10) ; value = > 10 µM

More entries:
// field: EC50; key: CSCC[C@@H]1NC(=O)[C@H](NC(=O)CCCCNC(=N)N)CSSC[C@@H](C(N)=O)NC(=O)CCCCNC(=O)CCCCNC(=O)[C@H](Cc2ccc(O)cc2)NC(=O)[C@H](C(C)C)NC(=O)[C@H](CCCNC(=N)N)NC(=O)CNC(=O)[C@H](CC(C)C)NC1=O [SEQ. ID. NO. 25] ; value = > 10 µM

// field: EC50; key: CSCC[C@@H]1NC(=O)[C@@H](NC(=O)[C@@H](CCCNC(=N)N)NC(C)=O)CSSC[C@@H](C(N)=O)NC(=O)[C@@H]2CCCN2C(=O)[C@H](CCCNC(=N)N)NC(=O)[C@H](Cc2ccc(O)cc2)NC(=O)[C@H](C(C)C)NC(=O)[C@H](CCCNC(=N)N)NC(=O)CCCCNC(=O)CCCCNC1=O [SEQ. ID. NO. 4] (Ac-[dR]CM[Ava][Ava]RVYRPC-NH2; disulfide 2-11 (inferred); C-terminus assumed) ; value = 1.08 µM

* * *

Attribute: pIC50
# STUDY_TARGET: human MCH-1R (Homo sapiens, UniProt Q99705)
# Sequence (Q99705 whole entry): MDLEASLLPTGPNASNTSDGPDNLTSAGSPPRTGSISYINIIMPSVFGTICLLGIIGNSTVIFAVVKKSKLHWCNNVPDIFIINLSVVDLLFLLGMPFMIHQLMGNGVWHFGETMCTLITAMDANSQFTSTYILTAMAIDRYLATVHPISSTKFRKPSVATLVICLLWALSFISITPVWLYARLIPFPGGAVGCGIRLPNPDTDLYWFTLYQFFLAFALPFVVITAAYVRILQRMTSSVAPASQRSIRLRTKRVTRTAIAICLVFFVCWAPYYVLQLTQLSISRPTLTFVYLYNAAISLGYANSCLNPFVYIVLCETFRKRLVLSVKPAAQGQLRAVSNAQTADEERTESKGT
Where a SMILES comes first, the peptide text is derived from it. Bridges are numbered along the chain shown (N, C = ends). [ ]: non-standard residue; d: D form. Ava = NCCCCC(=O)O
Interpret pIC50 as the negative base-10 log of the concentration measured in mol/L.

// field: pIC50; key: `CSCC[C@@H]1NC(=O)[C@@H](NC(=O)CCCCNC(=N)N)CSSC[C@@H](C(N)=O)NC(=O)CCCCNC(=O)CCCCNC(=O)[C@H](Cc2ccc(O)cc2)NC(=O)[C@H](C(C)C)NC(=O)[C@H](CCCNC(=N)N)NC(=O)CNC(=O)[C@H](CC(C)C)NC1=O` ; value = 8.52

// field: pIC50; key: CSCC[C@@H]1NC(=O)[C@@H](NC(=O)[C@H](CCCNC(=N)N)NC(C)=O)CSSC[C@@H](C(N)=O)NC(=O)CCCCNC(=O)CCCCNC(=O)[C@H](Cc2ccc(O)cc2)NC(=O)[C@H](C(C)C)NC(=O)[C@H](CCCNC(=N)N)NC(=O)CCCCNC(=O)CCCCNC1=O [SEQ. ID. NO. 30] (Ac-RCM[Ava][Ava]RVY[Ava][Ava]C-NH2; disulfide 2-11 (inferred); C-terminus assumed) ; value = 7.06

// field: pIC50; key: CSCC[C@@H]1NC(=O)[C@@H](NC(=O)[C@@H](CCCNC(=N)N)NC(C)=O)CSSC[C@@H](C(N)=O)NC(=O)CCCCNC(=O)CCCCNC(=O)[C@H](Cc2ccc(O)cc2)NC(=O)[C@H](C(C)C)NC(=O)[C@H](CCCNC(=N)N)NC(=O)CNC(=O)[C@H](CC(C)C)NC1=O [SEQ. ID. NO. 10] (Ac-[dR]CMLGRVY[Ava][Ava]C-NH2; disulfide 2-11 (inferred); C-terminus assumed) ; value = 7.71

// field: pIC50; key: CSCC[C@@H]1NC(=O)[C@H](NC(=O)[C@H](CCCNC(=N)N)NC(C)=O)CSSC[C@@H](C(N)=O)NC(=O)CCCCNC(=O)CCCCNC(=O)[C@H](Cc2ccc(O)cc2)NC(=O)[C@H](C(C)C)NC(=O)[C@H](CCCNC(=N)N)NC(=O)CNC(=O)[C@H](CC(C)C)NC1=O [SEQ. ID. NO. 24] (Ac-R[dC]MLGRVY[Ava][Ava]C-NH2; disulfide 2-11; C-terminus assumed) ; value = 6.46
